Cited source: the EternaBench riboswitch data

System: MS2 coat protein
PROCEDURE TEXT: apparent Kd, MS2 coat protein; higher = weaker binding; RNA-MaP array
CONDITION CONTEXT: ligand present: flavin mononucleotide; designed as: OFF switch for flavin mononucleotide
PROPERTY LABEL: apparent Kd (nM)

- SEQUENCE CODE: "AGUAAAAGAGGAUAUACAUGAGGAUCACCCAUGUUGGCGCAGACAAUCGAUGCAUCGAGUAGAAGGCUUUCAAU"
  MEASURED TARGET: "MS2 coat protein"
  REPORTED MEASUREMENT: 17.1
- SEQUENCE CODE: "CAGUGCGACUCAGGAUAUCAGAACACUAAGGCGUGAGAAGGGAGAACGACACAUGAGGAUCACCCAUGUUAGAGGGAAUGCAUG"
  MEASURED TARGET: "MS2 coat protein"
  REPORTED MEASUREMENT: 43.7
- SEQUENCE CODE: "ACGAGCCUAGGAUAUACAUGAGGAUCACCCAUGUGACUGAACACUCCGGUAUGUGCGGGUAGAAGGAGGUUCCA"
  MEASURED TARGET: "MS2 coat protein"
  REPORTED MEASUREMENT: 16.8
- SEQUENCE CODE: "GAACGUAGAGGAUAUACGACAAUGCACUGAUCGACGAGUACACAUGAGGAUCACCCAUGUAGAAGGCUAGGAAU"
  MEASURED TARGET: "MS2 coat protein"
  REPORTED MEASUREMENT: 6.45
- SEQUENCE CODE: "AACACGCUGGUAGGAUAUUACAACAUGAUGACUCGUCCAAGAAACAACAUGAGGAUCACCCAUGUUAAGAAGGACCACAAGAAA"
  MEASURED TARGET: "MS2 coat protein"
  REPORTED MEASUREMENT: 7.92
- SEQUENCE CODE: "AUCAAUCUAGGAUAUACAUGAGGAUCACCCAUGUCUUCAACCAAGGGCUCCACGACCUGUAGAAGGAGACAAAA"
  MEASURED TARGET: "MS2 coat protein"
  REPORTED MEASUREMENT: 22
- SEQUENCE CODE: "GGGAAACUCUACACUCACAACACAUGAGGAUCACCCAUGUUAAGAAGGUUCAGAACGGGCAAUCGAAAGGAUAUUAGGAUGGCU"
  MEASURED TARGET: "MS2 coat protein"
  REPORTED MEASUREMENT: 10.2
- SEQUENCE CODE: "UUGCAUUCUAAUCCUCUUACGACAUGAGGAUCACCCAUGUGUCAGGAUAUUCGAGAAGGAGCGACGAAGAAGGGACUAAUACAC"
  MEASURED TARGET: "MS2 coat protein"
  REPORTED MEASUREMENT: 32.8
- SEQUENCE CODE: "AAAAUCUGGUGAGGAUAUUGUUGAUGAUACAAACAAGAAGGCACGUUGACAUAGCGGGACAACAUGAGGAUCACCCAUGUCACU"
  MEASURED TARGET: "MS2 coat protein"
  REPORTED MEASUREMENT: 42.1
- SEQUENCE CODE: "UUGAUAGCAGGAUAUACAUGAGGAUCACCCAUGUACAGGCAAAAGGGAACUGACCCACGUAGAAGGGCUUCGCA"
  MEASURED TARGET: "MS2 coat protein"
  REPORTED MEASUREMENT: 21
- SEQUENCE CODE: "GAACAGCGGCAGAAGGACUCGCGAUUGUGUACGAACAUGAGGAUCACCCAUGUGUGAGUAUUCCAGUAGGAUAUGCGUUCUAUA"
  MEASURED TARGET: "MS2 coat protein"
  REPORTED MEASUREMENT: 12.1
- SEQUENCE CODE: "GGUGUUCCUCUAGGAUAUAGCGAUACAUGAGGAUCACCCAUGUUACUCCAGCGCGGCGGAUCGCUCUAGAAGGAGACAUAGCCA"
  MEASURED TARGET: "MS2 coat protein"
  REPORTED MEASUREMENT: 53.4
- SEQUENCE CODE: "GUGAAACAUGAGGAUCACCCAUGUUAGGAUAUAACGCGACGGCAGGGAUCUGCGCUACUUAGAAGGAACGGGAC"
  MEASURED TARGET: "MS2 coat protein"
  REPORTED MEASUREMENT: 9.73
- SEQUENCE CODE: "AGCGUUGCAGAGAAGGCGGUAUGAGUUACGCUCUCACACAUGAGGAUCACCCAUGUAAUGACGUCCGAGGAUAUCUCACAACUC"
  MEASURED TARGET: "MS2 coat protein"
  REPORTED MEASUREMENT: 5.81
- SEQUENCE CODE: "GCACGGAAAGGAUAUACAUGAGGAUCACCCAUGUUUCUUCUCAGGGCAAUUACCACAUGUAGAAGGUUCUCCAG"
  MEASURED TARGET: "MS2 coat protein"
  REPORTED MEASUREMENT: 39.8
- SEQUENCE CODE: "CACAUGAGGAUCACCCAUGUCUACGAAAGAUGUAGGGAAAAGAGAAGGUGGAGGGAACUGCCAGCCAAGGAUAUCUGCACUCGA"
  MEASURED TARGET: "MS2 coat protein"
  REPORTED MEASUREMENT: 33.3
- SEQUENCE CODE: "CAUCAGAGUGUCAGGAUAUGUUCAAAUAACUCGGGACAGAAGGGACAUGAGGAUCACCCAUGUGCAUAAAUUUA"
  MEASURED TARGET: "MS2 coat protein"
  REPORTED MEASUREMENT: 46.9
- SEQUENCE CODE: "AUCAAGUGAGGAUAUCCGUAGACUCCUAAUCAGCGACUCAAGGAGAAGGCACAUGAGGAUCACCCAUGUUAGAU"
  MEASURED TARGET: "MS2 coat protein"
  REPORTED MEASUREMENT: 20.8
- SEQUENCE CODE: "CGCAAUUCCUGAGGAUAUUGGCAGCGACAUGAGGAUCACCCAUGUGACCAUUUGGUGUUUUGUGUCAAGAAGGCAGCCCAUGAG"
  MEASURED TARGET: "MS2 coat protein"
  REPORTED MEASUREMENT: 33.8
- SEQUENCE CODE: "GGCGCGGCAGGAUAUGGAUGACGUGACAUGAGGAUCACCCAUGUGCUUAGAUCAUUCGUACCAGAAGGGCCCGCAG"
  MEASURED TARGET: "MS2 coat protein"
  REPORTED MEASUREMENT: 4.3
- SEQUENCE CODE: "ACACGCUAAGGAUAUACAUGAGGAUCACCCAUGUUAAAAGUUAAAUAGGAAUGAUACCGUAGAAGGUAGGAUGA"
  MEASURED TARGET: "MS2 coat protein"
  REPORTED MEASUREMENT: 11.4
- SEQUENCE CODE: "UAGAAUUAAGGAUAUACAGGAUCCGUACAAAUAUUGAUAGGACAUGAGGAUCACCCAUGUAGAAGGUAAGGCAG"
  MEASURED TARGET: "MS2 coat protein"
  REPORTED MEASUREMENT: 17.2
- SEQUENCE CODE: "CCUUAAGCAUAAGGAUAUAAGUUUUGACUAAGUUUAGAAGGUAUGCUUGCAAGAUCCGGCAAUAACAUGAGGAUCACCCAUGUG"
  MEASURED TARGET: "MS2 coat protein"
  REPORTED MEASUREMENT: 21.3
- SEQUENCE CODE: "GGUCGUGAUAAGGAUAUUGGCUGUCGUGCAAUCCAAGAAGGUAUCACAUGAGGAUCACCCAUGUACGCGUGUUG"
  MEASURED TARGET: "MS2 coat protein"
  REPORTED MEASUREMENT: 85.6
- SEQUENCE CODE: "AGAGCGAAUCUAACAUGAGGAUCACCCAUGUGUUAUGUUCACGAGGAUAUGUAGUCACUUAGGCGACAGAAGGCGUUCCAAGUA"
  MEASURED TARGET: "MS2 coat protein"
  REPORTED MEASUREMENT: 22
- SEQUENCE CODE: "CUGAGGUUAGGAUAUCUUCUGUUAUCUUCACGAUGAUAAACAGAGAAGGAACAUGAGGAUCACCCAUGUGGUCU"
  MEASURED TARGET: "MS2 coat protein"
  REPORTED MEASUREMENT: 99.8
- SEQUENCE CODE: "CUGACGUCAGGAUAUGCUAAUAAACAACAUAAAAGACAAGUGCAGAAGGGACAUGAGGAUCACCCAUGUGAAAA"
  MEASURED TARGET: "MS2 coat protein"
  REPORTED MEASUREMENT: 15.3
- SEQUENCE CODE: "GAGAGGAGGGAGAAGGAGAUAGUCUUCGGCAAUCUAGGAUAUCCACGUAGGGAAUCUCACAUGAGGAUCACCCAUGUUCAGCCG"
  MEASURED TARGET: "MS2 coat protein"
  REPORTED MEASUREMENT: 31.7
- SEQUENCE CODE: "CUGGUUGUCAAAGGAUAUAAACGAUCACAUGAGGAUCACCCAUGUCUCCCUAUGUUAAUAAGCGCUUAGAAGGUUGAGCCAGCC"
  MEASURED TARGET: "MS2 coat protein"
  REPORTED MEASUREMENT: 34.4
